# Assay details: Absolute bioavailability from AUC after po and iv administration
# Type: in vivo
# Condition info: rat; Wistar rats, male; iv 0.2 mg/kg, po 0.5 mg/kg; plasma by LC/MS/MS
Reported endpoint: bioavailability (%)
Express your answer in %, writing the number without its unit.

Prompt: Requested read-out: bioavailability. Entry: N#Cc1ccc2[nH]cc(CCCCN3CCN(c4ccc5oc(=O)ccc5c4)CC3)c2c1 [EMD 135894, reference compound]
Response: 10
